# assay_target: TYK2 (Homo sapiens)
# Sequence (P29597 whole entry): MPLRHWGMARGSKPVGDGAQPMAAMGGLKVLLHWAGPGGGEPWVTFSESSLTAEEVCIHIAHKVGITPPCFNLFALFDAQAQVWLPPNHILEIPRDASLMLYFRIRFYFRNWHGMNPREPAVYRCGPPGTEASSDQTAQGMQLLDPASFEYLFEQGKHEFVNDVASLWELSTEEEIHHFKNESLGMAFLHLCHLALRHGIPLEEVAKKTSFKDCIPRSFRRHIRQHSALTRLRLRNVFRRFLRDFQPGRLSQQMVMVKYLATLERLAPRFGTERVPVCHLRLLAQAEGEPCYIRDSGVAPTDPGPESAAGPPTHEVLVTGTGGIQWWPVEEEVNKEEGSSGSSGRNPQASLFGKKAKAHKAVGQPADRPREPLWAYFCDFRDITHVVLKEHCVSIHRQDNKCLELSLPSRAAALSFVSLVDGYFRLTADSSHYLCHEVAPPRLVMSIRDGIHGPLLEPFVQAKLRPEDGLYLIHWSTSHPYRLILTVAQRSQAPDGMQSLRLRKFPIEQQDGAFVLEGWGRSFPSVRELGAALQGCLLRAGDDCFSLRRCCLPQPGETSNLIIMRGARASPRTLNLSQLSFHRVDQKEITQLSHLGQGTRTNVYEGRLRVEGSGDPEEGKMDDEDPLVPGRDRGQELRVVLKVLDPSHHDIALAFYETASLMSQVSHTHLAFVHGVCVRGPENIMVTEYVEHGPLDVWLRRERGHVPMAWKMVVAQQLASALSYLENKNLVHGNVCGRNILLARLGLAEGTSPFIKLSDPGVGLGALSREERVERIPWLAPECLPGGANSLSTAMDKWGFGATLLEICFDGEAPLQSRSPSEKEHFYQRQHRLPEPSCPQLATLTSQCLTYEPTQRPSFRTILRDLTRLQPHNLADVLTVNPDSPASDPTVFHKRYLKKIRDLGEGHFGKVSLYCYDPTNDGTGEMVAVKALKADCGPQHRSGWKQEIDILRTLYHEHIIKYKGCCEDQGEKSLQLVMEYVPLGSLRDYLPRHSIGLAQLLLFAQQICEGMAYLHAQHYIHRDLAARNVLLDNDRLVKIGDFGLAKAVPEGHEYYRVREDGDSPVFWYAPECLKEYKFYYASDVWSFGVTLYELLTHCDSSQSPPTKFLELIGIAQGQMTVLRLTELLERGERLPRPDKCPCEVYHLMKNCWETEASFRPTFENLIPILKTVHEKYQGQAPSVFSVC
# experiment_notes: TYK2 degradation MSD assay in OCI-LY10 cells
# Format: cell-based
# Design: endogenous in cells; host or cells: EBV-B cells
# run_conditions: 4 to 24 hours incubation, read-out: TYK2 MSD DC50 rating in OCI-LY10
value_kind: DC50

Here is how some compounds turned out for DC50.
>>> recorded_value("CNc1cc(Nc2cccn(-c3ccc(C(=O)N4CCC(N(C)CC5CCN(c6ccc(-c7ccc8c(c7)n(C)c(=O)n8C7CCC(=O)NC7=O)cc6)C5)CC4)cn3)c2=O)nn2c(C(=O)N[C@@H]3C[C@@H]3F)cnc12 (some centres unmarked) [Example K446]")
"< 1 nM"
>>> recorded_value("CNc1cc(Nc2cccc(-c3ccc(CN4CCN(c5ccc(-c6ccc7c(c6)n(C)c(=O)n7C6CCC(=O)NC6=O)cc5)CC4)cn3)c2OC)nn2c(C(=O)N[C@@H]3C[C@@H]3F)cnc12 (some centres unmarked) [Example K479]")
"< 1 nM"
>>> recorded_value("CNc1cc(Nc2cccc(CN3CC4(C3)CN(c3ccc(-c5ccc6c(c5)n(C)c(=O)n6C5CCC(=O)NC5=O)cc3)C4)c2OC)nn2c(C(=O)N[C@@H]3C[C@@H]3F)cnc12 (some centres unmarked) [Example K610]")
"> 100 nM"

input: Which DC50 value is on record for CNc1cc(-c2ccc(CN3CCN(c4ccc(-c5ccc6c(c5)n(C)c(=O)n6C5CCC(=O)NC5=O)cc4)CC3)cc2)nn2c(C(=O)N[C@@H]3C[C@@H]3F)cnc12 (some centres unmarked) [Example K565] ?
output: > 100 nM

input: Which DC50 value is on record for CNC(=O)c1cnc(Nc2ccc(C(=O)NCCCCc3ccc4c(c3)n(C)c(=O)n4C3CCC(=O)NC3=O)cn2)cc1Nc1ccccc1OC (centres unmarked) [Example K706] ?
output: > 100 nM

Cited source: patent US20250051338A1
